- system name: UniProt P47924
- protocol notes: Thermal stability shift analysis
- condition set: from plot of deltaTm vs. concentration; 6.5 μM AtDHBPS; read-out: Kd-value for binding to AtDHBPS
quantity name: Kd (µM)
Form entry: value (µM) — number only.

Q: Please list Kd recorded for the molecule CC(=O)C(O)(CO)CP(=O)(O)O (stereo not shown) [phosphonothrixin]
Ans: 31.1

----------
- system name: AtDHBPS (Arabidopsis thaliana, UniProt P47924)
quantity name: pKi
Convention used: pKi is expressed as -log10 of the molar concentration.

Q: Answer with the recorded pKi of CC(=O)C(O)(CO)CP(=O)(O)O (stereo not shown) only.
Ans: 4.78

Where these numbers come from: paper PMC12268802
